# experimental.protocol: Toxicity in mouse
# Format: organism-based
# reported.conditions: in vivo
property.label: LD50 (mg/kg)
Give the value, in units of mg/kg, as a plain number.

Exercise: Specify measured LD50 for "COc1cc(O)c(CC=C(C)C)c(O)c1C(=O)/C=C/c1ccc(O)cc1" .
Solution: 500
